targetOfAssay: Casein kinase II subunit alpha' (Homo sapiens)
assayRemarks: Inhibition of […] (unknown origin) assessed as residual activity relative to control
Set-up: concentration or dose not given beside the values
Calls of active or inactive are those of the source. No cut-off for these calls is given here.
quantityKind: Activity

> print(dat)
                                 itemsmiles                             targetofassay  quantitykind  result
1   Cc1cn2c(NC(C)(C)C)nc3cc(C(=O)O)ccc3c2n1  Casein kinase II subunit alpha' (Homo sapiens)      Activity    104%
2  CCc1cn2c(Nc3cccc(Cl)c3)nc3cc(C(=O)O)ccc3c2n1  Casein kinase II subunit alpha' (Homo sapiens)      Activity     20%
3  O=C(O)c1ccc2c(c1)nc(Nc1cccc(Cl)c1)c1ncsc12  Casein kinase II subunit alpha' (Homo sapiens)      Activity      1%
4  Clc1cccc(Nc2nc3cc(-c4nnn[nH]4)ccc3c3ncccc23)c1  Casein kinase II subunit alpha' (Homo sapiens)      Activity     53%

Entry Cc1cn2c(Nc3cccc(Cl)c3)nc3cc(C(=O)O)ccc3c2n1 , tested on Casein kinase II subunit alpha' (Homo sapiens), has a reported Activity of 26%

Known value: Casein kinase II subunit alpha' (Homo sapiens) Activity of the molecule COc1nc(Nc2cccc(Cl)c2)nc2cc(C(=O)O)ccc12 equals 50%

Item: Cc1cn2c(Nc3ccnc(Cl)c3)nc3cc(C(=O)O)ccc3c2n1 | System: Casein kinase II subunit alpha' (Homo sapiens) | Activity: 73%

Cc1cn2c(NC3CCCCC3)nc3cc(C(=O)O)ccc3c2n1 on Casein kinase II subunit alpha' (Homo sapiens) gives Activity = 72%

The reported Casein kinase II subunit alpha' (Homo sapiens) Activity of O=C(O)c1ccc2c(Cc3ccccc3)cc(Nc3cccc(Cl)c3)nc2c1 is 101%

// returns Activity for O=C(O)c1ccc2c(c1)nc(Nc1cccc(Cl)c1)c1cnccc12 with Casein kinase II subunit alpha' (Homo sapiens); value = 28%

Casein kinase II subunit alpha' (Homo sapiens) Activity of Cc1scc2c1c(Nc1cccc(Cl)c1)nc1cc(C(=O)O)ccc12 is 33%

// molecule Cc1cn2c(N(C)c3cccc(Cl)c3)nc3cc(C(=O)O)ccc3c2n1 , assay Casein kinase II subunit alpha' (Homo sapiens), Activity value: 75%

Given the molecule Cn1ncc2c(Nc3cccc(Cl)c3)nc3cc(C(=O)O)ccc3c21 and test system Casein kinase II subunit alpha' (Homo sapiens), the measured Activity is 35%

Reported Casein kinase II subunit alpha' (Homo sapiens) Activity for item N/C(=N\O)c1ccc2c(c1)nc(Nc1cccc(Cl)c1)c1cccnc12 was inactive

Form field Activity for item Cc1cn2c(NC34CC5CC(CC(C5)C3)C4)nc3cc(C(=O)O)ccc3c2n1 on Casein kinase II subunit alpha' (Homo sapiens): 83%

Kindly note: Casein kinase II subunit alpha' (Homo sapiens), Cc1cn2c(Nc3cccc(C(C)C)c3)nc3cc(C(=O)O)ccc3c2n1 , Activity value reported: 31%

Activity for Casein kinase II subunit alpha' (Homo sapiens) with input O=c1[nH]nc(-c2ccc3c(c2)nc(Nc2cccc(Cl)c2)c2cccnc23)o1 equals 52%

Response field Activity (Casein kinase II subunit alpha' (Homo sapiens)) for item O=C(O)c1ccc2cnc(Nc3cccc(Cl)c3)nc2c1 : -4%

Field Activity (Casein kinase II subunit alpha' (Homo sapiens)), entry O=C(O)c1ccc2c(Cc3ccccc3)nc(Nc3cccc(Cl)c3)nc2c1 : 96%

Per the reported Casein kinase II subunit alpha' (Homo sapiens) data, O=C(O)c1ccc2c(c1)N=C(Nc1cccc(Cl)c1)N1CCN=C21 has Activity of 128%

// returns Activity for O=C(O)c1ccc2ccc(Nc3cccc(Cl)c3)nc2c1 with Casein kinase II subunit alpha' (Homo sapiens); value = 20%

// returns Activity for CC(=O)Oc1ccc(COC(=O)c2ccc3c(c2)nc(Nc2cccc(Cl)c2)c2cccnc23)cc1 with Casein kinase II subunit alpha' (Homo sapiens); value = inactive
